pKi: −log10 of the molar value.
Field pKi: reported value for D(3) dopamine receptor (Rattus norvegicus); entries drawn from several documents.
Assign class by pKi: not lower than 8 means 1; lower than 8 means 0.

>>> df
                                   compound  assigned_category
0  COc1c(C(=O)NC2CC3CCCC(C2)N3Cc2ccccc2)cc(Br)c2ccccc12 (centres undefined)                  1
1  CCCN(CC[C@H]1CC[C@H](NC(=O)c2cccc(-n3ccnc3)c2)CC1)[C@H]1CCc2nc(N)sc2C1                  1
2  Cc1cc(=O)oc2cc(OCCCCN3CCC(c4noc5cc(F)ccc45)CC3)ccc12                  0
3  COc1ccccc1N1CCN(CCCCNC(=O)[C@H]2Cc3ccccc3CN2)CC1                  1
4  COc1c(C(=O)NC2CCN(C3CCCCC3)CC2)cc(Br)c2ccccc12                  0
5  CCCN(CCN1CCN(C(=O)c2c[nH]c3ccccc23)CC1)[C@H]1CCc2nc(N)sc2C1                  1

----------
pKi: −log10 of the molar value.
Field pKi: reported value for D(3) dopamine receptor (Rattus norvegicus); entries drawn from several documents.
Assign class by pKi: not lower than 9 means TRUE; lower than 9 means FALSE.

>>> print(df.to_string())
                                   compound  assigned_category
0  CCCN(CCN1CCN(c2ccccc2)CC1)C1CCc2ccc3nc[nH]c3c2C1 (centres undefined)              FALSE
1  CCCN(CCC/C=C/c1ccc(O)c(OC)c1)[C@H]1CCc2nc(N)sc2C1              FALSE
2  O=C(NCCCCN1CCN(c2ccc(Cl)cc2Cl)CC1)c1cc2cc(Cl)ccc2[nH]1               TRUE
3  CCCN(CCCCN1CCN(c2ccc(-c3cccc(O)c3)cc2)CC1)C1CCc2nc(N)sc2C1 (racemic)              FALSE
4  Cn1c(SCCCN2CCOC(c3ccc(C(F)(F)F)cc3)C2)nnc1-c1ccc(C(N)=O)nc1 (racemic)              FALSE
5  CCCN(CCc1ccc(C(F)(F)F)cc1)C1Cc2cc(OC)c(OC)cc2C1              FALSE

----------
Field Ki: reported value for D(3) dopamine receptor (Rattus norvegicus, UniProt P19020); entries drawn from several documents.
measured.metric: Ki

                                    compound                             target_system      result
 0  CCCN(CCN1CCN(c2ccc(-c3ccccc3)cc2)CC1)C1CCc2c(O)cccc2C1 (single isomer, unassigned; (-))  D(3) dopamine receptor (Rattus norvegicus, UniProt P19020)  0.00236 µM
 1  CCCN(CC[C@H]1CC[C@H](NC(=O)/C=C/c2cccc(Cl)c2)CC1)[C@H]1CCc2nc(N)sc2C1  D(3) dopamine receptor (Rattus norvegicus, UniProt P19020)   0.0012 µM
 2  Cn1c(SCCCN2CCOC(c3ccc(C(F)(F)F)cc3)C2)nnc1-c1cccc(C(N)=O)c1 (racemic)  D(3) dopamine receptor (Rattus norvegicus, UniProt P19020)    0.316 µM
 3  CCCN(CCN1CCN(c2ccccc2)CC1)C1CCc2[nH]ncc2C1 (configuration not stated)  D(3) dopamine receptor (Rattus norvegicus, UniProt P19020)   0.0467 µM
 4  Oc1ccc2c(c1)C[C@H]1[C@@H](CCCN1CCCCN1CCN(c3ccccc3)CC1)C2 (racemic)  D(3) dopamine receptor (Rattus norvegicus, UniProt P19020)    0.102 µM
 5  O=[N+]([O-])c1ccc(S(=O)(=O)N2CCC(CN3CCC(c4noc5cc(F)ccc45)CC3)CC2)cc1  D(3) dopamine receptor (Rattus norvegicus, UniProt P19020)   0.0166 µM
 6  O=S(=O)(c1ccc(C(F)(F)F)cc1)N1CCC(CN2CCC(c3noc4cc(F)ccc34)CC2)CC1  D(3) dopamine receptor (Rattus norvegicus, UniProt P19020)    0.237 µM
 7  CCCN(CCN1CCN(c2ccc(-c3ccccc3)cc2)CC1)C1CCc2nc(N)ncc2C1 (racemic)  D(3) dopamine receptor (Rattus norvegicus, UniProt P19020)  0.00365 µM
 8  COc1ccc2c(c1)N1CCN(CCCCNC(=O)c3ccc4ccccc4c3)CC1CC2 (configuration not stated)  D(3) dopamine receptor (Rattus norvegicus, UniProt P19020)    0.045 µM
 9  COc1c(C(=O)N[C@H]2CCN(C3[C@H]4C[C@@H]5C[C@@H](C[C@H]3C5)C4)C2)cc(Br)c2ccccc12 (some centres not stated)  D(3) dopamine receptor (Rattus norvegicus, UniProt P19020)   0.0004 µM
10  CCCN(CCN1CCN(C(=O)c2c[nH]c3ccccc23)CC1)C1CCc2nc(N)sc2C1 (racemic)  D(3) dopamine receptor (Rattus norvegicus, UniProt P19020)  0.00417 µM
11  Cn1c(SCCCN2CCOC(c3ccc(C(F)(F)F)cc3)C2)nnc1C1CCCCC1 (racemic)  D(3) dopamine receptor (Rattus norvegicus, UniProt P19020)   0.0398 µM
12  COc1ccccc1C(=O)CCCCCN1CCN(c2noc3ccccc23)CC1  D(3) dopamine receptor (Rattus norvegicus, UniProt P19020)   0.0549 µM
13  CCCN(CCN1CCN(Cc2cc3ccccc3[nH]2)CC1)C1CCc2c(O)cccc2C1 (configuration not stated)  D(3) dopamine receptor (Rattus norvegicus, UniProt P19020)  0.00548 µM
14  CCCN(CC[C@H]1CC[C@H](NS(=O)(=O)c2cccc(Cl)c2)CC1)[C@H]1CCc2nc(N)sc2C1  D(3) dopamine receptor (Rattus norvegicus, UniProt P19020)   0.0011 µM
15  CCCN(CCN1CCN(c2ccc3[nH]ccc3c2)CC1)C1CCc2c(O)cccc2C1 (configuration not stated)  D(3) dopamine receptor (Rattus norvegicus, UniProt P19020)   0.0104 µM
16  Cn1c(SCCCN2CCOC(c3ccc(C(F)(F)F)cc3)C2)nnc1-c1nccs1 (racemic)  D(3) dopamine receptor (Rattus norvegicus, UniProt P19020)    0.251 µM
